STK11 functional score values, listed per item
B1: library; numbered along this chain (parent)
chain: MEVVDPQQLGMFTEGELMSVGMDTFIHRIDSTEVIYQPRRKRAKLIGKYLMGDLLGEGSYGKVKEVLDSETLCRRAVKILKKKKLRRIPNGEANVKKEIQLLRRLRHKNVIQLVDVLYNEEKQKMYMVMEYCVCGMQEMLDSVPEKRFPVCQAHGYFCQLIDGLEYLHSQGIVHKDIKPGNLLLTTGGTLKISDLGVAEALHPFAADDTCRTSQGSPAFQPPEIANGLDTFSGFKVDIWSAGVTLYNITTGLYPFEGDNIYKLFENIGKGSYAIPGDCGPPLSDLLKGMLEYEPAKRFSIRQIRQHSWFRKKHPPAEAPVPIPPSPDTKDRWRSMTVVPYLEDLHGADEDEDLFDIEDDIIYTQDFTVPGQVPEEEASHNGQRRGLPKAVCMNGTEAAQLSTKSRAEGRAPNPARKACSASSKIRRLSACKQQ

# Variants of: B1
# test.name: STK11 functional score (HeLa growth suppression), rescaled enrichment; synonymous median = 1, nonsense median = 0 (normalised score)
# measurement.parameters: with HeLa; variant type: missense
I'd appreciate a reply containing only the number, no unit.

Known STK11 functional score results, listed for orientation:
H107R    0.205
P89D    0.0497
H345S    1.18

Prompt: Item `K388S` has what recorded STK11 functional score?
Response: 1.19
